Where do these numbers come from? They come from paper PMC12207908.

System: PREC3
Readout type: MIC (µg/mL)
Form entry: value (µg/mL) — number only.

The cases that follow already have their MIC on record.
| Molecule | Value units | MIC |
| --- | --- | --- |
| NCC[C@H](O)C(=O)N[C@@H]1C[C@H](N)[C@@H](O[C@H]2O[C@H](CN)[C@@H](O)[C@H](O)[C@H]2O)[C@H](O)[C@H]1O[C@H]1O[C@H](CO)[C@@H](O)[C@H](N)[C@H]1O | µg/mL | 2 |
| CNC(C)C1CCC(N)C(OC2C(N)CC(N)C(OC3OCC(C)(O)C(NC)C3O)C2O)O1 (stereo not shown) | µg/mL | 2 |

IN: // lookup MIC | system=PREC3 | key= `CC(C)(O/N=C(\C(=O)N[C@@H]1C(=O)N2C(C(=O)[O-])=C(C[n+]3ccccc3)CS[C@H]12)c1csc(N)n1)C(=O)O`
OUT: 16

###

System: En. faecium (Clinical; MDR; pig, faeces), lower row
Experimental details: MIC, broth microdilution
Format: cell-based
Reported conditions: Enterococcus faecium, En. faecium clinical MDR isolate, MHB, 16–18 h, 37°C, independent triplicates
Readout type: MIC

The cases that follow already have their MIC on record.
| Compound | MIC |
| --- | --- |
| C[C@@H](O)[C@H]1C(=O)N2C(C(=O)O)=C(SCCN=CN)C[C@H]12 [IMP, imipenem] | > 32 µg/mL |
| CC(C)(O/N=C(\C(=O)N[C@@H]1C(=O)N2C(C(=O)[O-])=C(C[n+]3ccccc3)CS[C@H]12)c1csc(N)n1)C(=O)O [CAZ, ceftazidime] | > 32 µg/mL |
| CNC(C)C1CCC(N)C(OC2C(N)CC(N)C(OC3OCC(C)(O)C(NC)C3O)C2O)O1 (stereo not drawn) [GEN, gentamicin] | 32 µg/mL |
| C[C@@H](O)[C@H]1C(=O)N2C(C(=O)O)=C(S[C@@H]3CN[C@H](C(=O)N(C)C)C3)[C@H](C)[C@H]12 [MEM, meropenem] | 16 µg/mL |

IN: Need MIC, item CC1(C)S[C@@H]2[C@H](NC(=O)[C@H](N)c3ccccc3)C(=O)N2[C@H]1C(=O)O [AMP, ampicillin]
OUT: > 32 µg/mL

IN: Need MIC, item CN(C)[C@@H]1C(O)=C(C(N)=O)C(=O)[C@@]2(O)C(O)=C3C(=O)c4c(O)cccc4[C@@](C)(O)[C@H]3C[C@@H]12 [TET, tetracycline]
OUT: > 32 µg/mL

###

Test system: CRCB1
Readout type: MIC

The cases that follow already have their MIC on record.
| Mol | Readout type | Result |
| --- | --- | --- |
| NCC[C@H](O)C(=O)N[C@@H]1C[C@H](N)[C@@H](O[C@H]2O[C@H](CN)[C@@H](O)[C@H](O)[C@H]2O)[C@H](O)[C@H]1O[C@H]1O[C@H](CO)[C@@H](O)[C@H](N)[C@H]1O | MIC | 4 µg/mL |
| C[C@@H](O)[C@H]1C(=O)N2C(C(=O)O)=C(S[C@@H]3CN[C@H](C(=O)N(C)C)C3)[C@H](C)[C@H]12 | MIC | 32 µg/mL |
| CN(C)[C@@H]1C(O)=C(C(N)=O)C(=O)[C@@]2(O)C(O)=C3C(=O)c4c(O)cccc4[C@@](C)(O)[C@H]3C[C@@H]12 | MIC | > 32 µg/mL |
| CC1(C)S[C@@H]2[C@H](NC(=O)[C@H](N)c3ccccc3)C(=O)N2[C@H]1C(=O)O | MIC | > 32 µg/mL |
| CC(C)(O/N=C(\C(=O)N[C@@H]1C(=O)N2C(C(=O)[O-])=C(C[n+]3ccccc3)CS[C@H]12)c1csc(N)n1)C(=O)O | MIC | > 32 µg/mL |

IN: // lookup MIC | system=CRCB1 | key= `C[C@@H](O)[C@H]1C(=O)N2C(C(=O)O)=C(SCCN=CN)C[C@H]12`
OUT: > 32 µg/mL

###

Below are MIC values measured for CREC7.
Form entry: value (µg/mL) — number only.

| Mol | Test target | MIC [µg/mL] |
| --- | --- | --- |
| C[C@@H](O)[C@H]1C(=O)N2C(C(=O)O)=C(SCCN=CN)C[C@H]12 | CREC7 | 32 |
| C[C@@H](O)[C@H]1C(=O)N2C(C(=O)O)=C(S[C@@H]3CN[C@H](C(=O)N(C)C)C3)[C@H](C)[C@H]12 | CREC7 | 32 |

// moving on: another record for MIC
IN: // lookup MIC | system=CREC7 | key= `NCC[C@H](O)C(=O)N[C@@H]1C[C@H](N)[C@@H](O[C@H]2O[C@H](CN)[C@@H](O)[C@H](O)[C@H]2O)[C@H](O)[C@H]1O[C@H]1O[C@H](CO)[C@@H](O)[C@H](N)[C@H]1O`
OUT: 2

###

Below are MIC values measured for CRCB3.
Form entry: value (µg/mL) — number only.

The cases that follow already have their MIC on record.
| Compound | MIC, µg/mL |
| --- | --- |
| NCC[C@H](O)C(=O)N[C@@H]1C[C@H](N)[C@@H](O[C@H]2O[C@H](CN)[C@@H](O)[C@H](O)[C@H]2O)[C@H](O)[C@H]1O[C@H]1O[C@H](CO)[C@@H](O)[C@H](N)[C@H]1O [AMK, amikacin] | 8 |
| C[C@@H](O)[C@H]1C(=O)N2C(C(=O)O)=C(S[C@@H]3CN[C@H](C(=O)N(C)C)C3)[C@H](C)[C@H]12 [MEM, meropenem] | 32 |

// moving on: another record for MIC
IN: // lookup MIC | system=CRCB3 | key= C[C@@H](O)[C@H]1C(=O)N2C(C(=O)O)=C(SCCN=CN)C[C@H]12 [IMP, imipenem]
OUT: 8

###

Below are MIC values measured for PREC2.

The cases that follow already have their MIC on record.
| Compound | Result |
| --- | --- |
| CNC(C)C1CCC(N)C(OC2C(N)CC(N)C(OC3OCC(C)(O)C(NC)C3O)C2O)O1 (stereo not shown) [GEN, gentamicin] | > 32 µg/mL |
| C[C@@H](O)[C@H]1C(=O)N2C(C(=O)O)=C(SCCN=CN)C[C@H]12 [IMP, imipenem] | < 1 µg/mL |
| C[C@@H](O)[C@H]1C(=O)N2C(C(=O)O)=C(S[C@@H]3CN[C@H](C(=O)N(C)C)C3)[C@H](C)[C@H]12 [MEM, meropenem] | < 1 µg/mL |
| CN(C)[C@@H]1C(O)=C(C(N)=O)C(=O)[C@@]2(O)C(O)=C3C(=O)c4c(O)cccc4[C@@](C)(O)[C@H]3C[C@@H]12 [TET, tetracycline] | > 32 µg/mL |
| CC(C)(O/N=C(\C(=O)N[C@@H]1C(=O)N2C(C(=O)[O-])=C(C[n+]3ccccc3)CS[C@H]12)c1csc(N)n1)C(=O)O [CAZ, ceftazidime] | > 32 µg/mL |

IN: Need MIC, item CC1(C)S[C@@H]2[C@H](NC(=O)[C@H](N)c3ccccc3)C(=O)N2[C@H]1C(=O)O [AMP, ampicillin]
OUT: > 32 µg/mL

IN: Need MIC, item NCC[C@H](O)C(=O)N[C@@H]1C[C@H](N)[C@@H](O[C@H]2O[C@H](CN)[C@@H](O)[C@H](O)[C@H]2O)[C@H](O)[C@H]1O[C@H]1O[C@H](CO)[C@@H](O)[C@H](N)[C@H]1O [AMK, amikacin]
OUT: 8 µg/mL

###

# MIC annotations
Tested on: CREC6
Form entry: value (µg/mL) — number only.

IN: // lookup MIC | system=CREC6 | key= `NCC[C@H](O)C(=O)N[C@@H]1C[C@H](N)[C@@H](O[C@H]2O[C@H](CN)[C@@H](O)[C@H](O)[C@H]2O)[C@H](O)[C@H]1O[C@H]1O[C@H](CO)[C@@H](O)[C@H](N)[C@H]1O`
OUT: 16

IN: // lookup MIC | system=CREC6 | key= `C[C@@H](O)[C@H]1C(=O)N2C(C(=O)O)=C(S[C@@H]3CN[C@H](C(=O)N(C)C)C3)[C@H](C)[C@H]12`
OUT: 32

IN: // lookup MIC | system=CREC6 | key= `C[C@@H](O)[C@H]1C(=O)N2C(C(=O)O)=C(SCCN=CN)C[C@H]12`
OUT: 32

###

Test system: En. faecium (Clinical; MDR; pig, faeces), upper row
Experimental details: MIC, broth microdilution
Assay type: cell-based
Reported conditions: Enterococcus faecium, En. faecium clinical MDR isolate, MHB, 16–18 h, 37°C, independent triplicates
Readout type: MIC (µg/mL)
Form entry: value (µg/mL) — number only.

The cases that follow already have their MIC on record.
| Molecule | MIC, µg/mL |
| --- | --- |
| C[C@@H](O)[C@H]1C(=O)N2C(C(=O)O)=C(S[C@@H]3CN[C@H](C(=O)N(C)C)C3)[C@H](C)[C@H]12 [MEM, meropenem] | 8 |
| NCC[C@H](O)C(=O)N[C@@H]1C[C@H](N)[C@@H](O[C@H]2O[C@H](CN)[C@@H](O)[C@H](O)[C@H]2O)[C@H](O)[C@H]1O[C@H]1O[C@H](CO)[C@@H](O)[C@H](N)[C@H]1O [AMK, amikacin] | 16 |
| CNC(C)C1CCC(N)C(OC2C(N)CC(N)C(OC3OCC(C)(O)C(NC)C3O)C2O)O1 (stereo not shown) [GEN, gentamicin] | 8 |

// moving on: another record for MIC
IN: Need MIC, item CC1(C)S[C@@H]2[C@H](NC(=O)[C@H](N)c3ccccc3)C(=O)N2[C@H]1C(=O)O [AMP, ampicillin]
OUT: 32
